The measured values listed here are drawn from the supplement of paper PMC10899765.

tested on: MCF10A; assay: percent viability (nuclei count relative to siNT); higher = more viable cells; settings: 20 nM; 72 h
Decide using percent viability alone. Strictly below 60%: True. Equal to or above 60%: False.

1. UGGGCGUAUCUGUAUGCUA [hsa-miR-585] :: True
2. GAAUACGUCUGGUUGAUCC [hsa-miR-6082] :: False
3. UCAAGUAGUUUCAUGAUAAAGG [hsa-miR-5697] :: False
4. AGGUAUUGCCACCCUUUCUAGU [hsa-miR-5681b] :: True
5. UGUGGUAGAUAUAUGCACGAU [hsa-miR-4536-5p] :: True
6. GCUAGUCCUGACUCAGCCAGU [hsa-miR-554] :: False
7. CCUGUUCUCCAUUACUUGGCUC [hsa-miR-26b-3p] :: False
8. GAGGGCAGAGCCAGCUUCCUGA [hsa-miR-7843-5p] :: True
9. UAGGAUGGGGGUGAGAGGUG [hsa-miR-2392] :: True
10. AAAGUGCUUCUCUUUGGUGGGU [hsa-miR-520d-3p] :: False
11. AGCUGUCUGAAAAUGUCUU [hsa-miR-626] :: True
12. CUGGGAGGUGUGAUAUCGUGGU [hsa-miR-3689a-3p] :: True
